molecular target: GST fusion human ERK2 protein (Homo sapiens, UniProt P28482); construct: purchased Carna Biosciences, Inc; host or cells: E. coli expression system; test: ERK2 enzyme assay (2); format: biochemical; details: ERK2 enzyme assay (2); read-out: ERK2 enzyme inhibitory activity (2)
Sequence (P28482 whole entry, the tested form may be a part): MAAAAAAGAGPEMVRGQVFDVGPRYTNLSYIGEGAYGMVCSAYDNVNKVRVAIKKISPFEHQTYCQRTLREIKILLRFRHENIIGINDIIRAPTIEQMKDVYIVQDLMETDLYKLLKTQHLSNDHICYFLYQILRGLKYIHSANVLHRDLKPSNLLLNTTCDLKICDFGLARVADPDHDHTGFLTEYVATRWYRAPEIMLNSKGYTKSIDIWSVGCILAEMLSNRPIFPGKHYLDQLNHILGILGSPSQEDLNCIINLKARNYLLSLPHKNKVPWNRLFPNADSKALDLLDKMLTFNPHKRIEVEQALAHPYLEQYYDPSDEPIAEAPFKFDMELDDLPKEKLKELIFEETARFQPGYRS

>  <compound>
CC(C)c1cnnc(Nc2ccc3ncc(-c4cnn(Cc5ccc(N6CCOCC6)nc5)c4)cc3n2)c1 [Example 0462]

>  <IC50>
< 1000 nM

$$$$
>  <compound>
CC(C)c1cnnc(Nc2ccc3ncc(N)cc3n2)c1 [Example 0623]

>  <IC50>
1000 to 10000 nM

$$$$
>  <compound>
CC(C)c1cnnc(Nc2ccc3ncc(-c4cnn(CCCN(C)CC(=O)OC(C)(C)C)c4)cc3n2)c1 [Example 0661]

>  <IC50>
< 1000 nM

$$$$
>  <compound>
CC(C)c1cnnc(Nc2ccc3ncc(-c4cnn(CC(CN5CCOCC5)OCC5CC5)c4)cc3n2)c1 (centres unmarked) [Example 0745]

>  <IC50>
< 1000 nM

$$$$
>  <compound>
CC(C)c1cnnc(Nc2ccc3ncc(-c4cnn(CCCN5CCN(c6cccnc6)CC5)c4)cc3n2)c1 [Example 0446]

>  <IC50>
< 1000 nM

$$$$
>  <compound>
CC(C)c1cnnc(Nc2ccc3ncc(-c4ccnc(N)n4)cc3n2)c1 [Example 0766]

>  <IC50>
< 1000 nM

$$$$
>  <compound>
COCCC(=O)Nc1cnc2ccc(Nc3cc(C(C)C)cnn3)nc2c1 [Example 0632]

>  <IC50>
1000 to 10000 nM

$$$$
>  <compound>
CC(C)c1cnnc(Nc2ccc3ncc(-c4cnn(CCC5CCNCC5)c4)cc3n2)c1 [Example 0488]

>  <IC50>
< 1000 nM

$$$$
>  <compound>
CC(=O)N1[C@H](C)CN(CCCn2cc(-c3cnc4ccc(Nc5cc(C(C)C)cnn5)nc4c3)cn2)C[C@@H]1C [Example 0435]

>  <IC50>
< 1000 nM

$$$$
>  <compound>
CC(=O)N1CC(Cn2cc(-c3cnc4ccc(Nc5cc(C(C)C)cnn5)nc4c3)cn2)C1 [Example 0438]

>  <IC50>
< 1000 nM

$$$$
>  <compound>
Cc1n[nH]cc1-c1cnc2ccc(Nc3cc(C(C)C)cnn3)nc2c1 [Example 0719]

>  <IC50>
< 1000 nM

$$$$
>  <compound>
CC(C)c1cnnc(Nc2ccc3ncc(-c4cnn(CCCN(C)CC(N)=O)c4)cc3n2)c1 [Example 0671]

>  <IC50>
< 1000 nM

$$$$
>  <compound>
c1nc2ccc(Nc3nnc(C4CCC4)s3)nc2cc1-c1cnn(CCCN2CCCC2)c1 [Example 0235]

>  <IC50>
< 1000 nM

$$$$
>  <compound>
CC(C)Oc1c(-c2cnn(C)c2)cnc2ccc(Nc3nnc(C4CCCC4)s3)nc12 [Example 0359]

>  <IC50>
1000 to 10000 nM

$$$$
>  <compound>
COc1cnnc(Nc2ccc3ncc(-c4cnn(CCCN5CCOCC5)c4)cc3n2)c1 [Example 0496]

>  <IC50>
< 1000 nM

$$$$
>  <compound>
CC(C)c1cnnc(Nc2ccc3ncc(-c4cn(C)nc4-c4ccccc4)cc3n2)c1 [Example 0579]

>  <IC50>
< 1000 nM

$$$$
>  <compound>
C=Cc1cnc2ccc(Nc3cc(C(C)C)cnn3)nc2c1 [Example 0638]

>  <IC50>
< 1000 nM

$$$$
